- assayed_system: CCK-B (Cavia porcellus, UniProt H0VZC5)
- Sequence (H0VZC5 entry or part of it): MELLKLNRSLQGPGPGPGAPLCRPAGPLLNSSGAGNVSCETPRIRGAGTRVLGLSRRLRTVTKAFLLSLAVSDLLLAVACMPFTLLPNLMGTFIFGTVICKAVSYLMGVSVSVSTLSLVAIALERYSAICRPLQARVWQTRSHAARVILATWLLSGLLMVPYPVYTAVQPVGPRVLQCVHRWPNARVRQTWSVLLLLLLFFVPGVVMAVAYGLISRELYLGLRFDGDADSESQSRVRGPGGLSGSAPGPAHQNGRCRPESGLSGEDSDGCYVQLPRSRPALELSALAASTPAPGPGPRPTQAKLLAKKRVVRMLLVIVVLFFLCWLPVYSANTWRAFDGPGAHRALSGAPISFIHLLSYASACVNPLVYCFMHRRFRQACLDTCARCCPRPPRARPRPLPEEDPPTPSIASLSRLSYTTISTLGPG
assay_metric: pIC50
Would you please state pIC50, meaning minus log10 of the concentration in mol/L, as a bare number?

[in] Missing value: pIC50, CCK-B (Cavia porcellus, UniProt H0VZC5), entry Cc1cccc(NC(=O)NC2N=C(C3CCCCC3)c3ccsc3N(C)C2=O)c1 (racemic) [Example 1] . Fill in?
[out] 7.34

---

- assayed_system: CCK-A (Rattus norvegicus)
- Sequence (P30551 whole entry): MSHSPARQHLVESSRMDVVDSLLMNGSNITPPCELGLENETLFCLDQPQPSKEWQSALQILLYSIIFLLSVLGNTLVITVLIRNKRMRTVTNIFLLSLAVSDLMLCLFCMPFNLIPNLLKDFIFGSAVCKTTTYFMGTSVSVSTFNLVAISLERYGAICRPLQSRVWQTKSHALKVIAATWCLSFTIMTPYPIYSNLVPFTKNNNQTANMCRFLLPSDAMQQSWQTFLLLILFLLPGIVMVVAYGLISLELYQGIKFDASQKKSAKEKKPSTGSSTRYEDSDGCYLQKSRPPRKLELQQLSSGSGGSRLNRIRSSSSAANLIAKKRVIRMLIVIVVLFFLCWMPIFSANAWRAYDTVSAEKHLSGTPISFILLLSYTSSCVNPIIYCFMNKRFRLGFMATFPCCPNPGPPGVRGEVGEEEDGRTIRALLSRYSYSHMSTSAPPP
assay_metric: pIC50
Just so you know, pIC50 here is -log10 of the concentration in molar units; reply with that number alone.

[in] Notebook: pull reported pIC50 for CCK-A (Rattus norvegicus), entry Cc1cccc(NC(=O)NC2N=C(C3CCCCC3)c3ccsc3N(C)C2=O)c1 (racemic)
[out] 8.17

Values compiled from patent US5602125A.
